Data origin, for the record: patent US20220267271A1

Experimental details: Aqueous (kinetic) solubility assay in PBS pH 7.4
Assay type: physicochemical
Assay conditions: phosphate-buffered saline, 25 °C, pH 7.4, aqueous buffer, kinetic from dmso stock, PBS pH 7.4, 2% DMSO, two hours, assay range 2-200 μM, read-out: PBS solubility, pH 7.4, μM Exp1
# binarize solubility at 2 h: threshold 200 µM inclusive, high side T, low side F

Prompt line: Could you please find out whether CC1CCCC(C)N1CCNC(=O)c1ccc(C(=O)Nc2ccccc2N)nc1 (centres unmarked) [Compound 1011] has solubility at 2 h that meets 200 µM or exceeds it?
Response line: T

Prompt line: Could you please find out whether Cc1nccn1CC1CCc2c(c3ccccc3n2C)C1=O (centres unmarked) [Ondansetron, reference compound] has solubility at 2 h that meets 200 µM or exceeds it?
Response line: F

Prompt line: Could you please find out whether Nc1ccccc1NC(=O)c1ccc(C(=O)NCC2CCN2C2CCCC2)cn1 (centres unmarked) [Compound 1015] has solubility at 2 h that meets 200 µM or exceeds it?
Response line: T

====

Experimental details: Aqueous (kinetic) solubility assay in PBS pH 7.4
Type: physicochemical
Assay conditions: phosphate-buffered saline, 25 °C, pH 7.4, aqueous buffer, kinetic from dmso stock, PBS pH 7.4, 2% DMSO, two hours, assay range 2-200 μM, read-out: PBS solubility, pH 7.4, μM Mean
Assignment: determine reported solubility at 2 h for the given compounds.
Give the number; µM is assumed, so skip it.

Prompt line: What measured solubility at 2 h goes with Nc1ccccc1NC(=O)c1ccc(C(=O)NCCN2CCCC3CCCCC32)cn1 (centres unmarked) [Compound 1009] ?
Response line: 194

Prompt line: What measured solubility at 2 h goes with Cc1nccn1CC1CCc2c(c3ccccc3n2C)C1=O (centres unmarked) [Ondansetron, reference compound] ?
Response line: 111

====

Experimental details: Metabolic stability in mouse liver microsomes
Type: in vitro ADME
Assay conditions: 2 μM, five time points over 40 min, NADPH
Value kind: stability in mouse hepatic microsomal system

>>> measured_value("CC(=O)Nc1ccc(C(=O)Nc2ccccc2N)nc1")
"good stability"
>>> measured_value("Nc1ccccc1NC(=O)c1ccc(C(=O)NCC2CCN2C2CCCC2)cn1 (centres unmarked)")
"good stability"
>>> measured_value("CC1CCCC(C)N1CCNC(=O)c1ccc(C(=O)Nc2ccccc2N)nc1 (centres unmarked)")
"good stability"

====

Experimental details: Aqueous (kinetic) solubility assay in PBS pH 7.4
Format: physicochemical
Assay conditions: phosphate-buffered saline, 25 °C, pH 7.4, aqueous buffer, kinetic from dmso stock, PBS pH 7.4, 2% DMSO, two hours, assay range 2-200 μM, read-out: PBS solubility, pH 7.4, μM Exp2
Assignment: determine reported solubility at 2 h for the given molecules.
Answer with the number, then the unit.

Prompt line: What measured solubility at 2 h goes with Cc1nccn1CC1CCc2c(c3ccccc3n2C)C1=O (centres unmarked) [Ondansetron, reference compound] ?
Response line: 113 µM

Prompt line: What measured solubility at 2 h goes with Nc1ccccc1NC(=O)c1ccc(C(=O)NCC2CCN2C2CCCC2)cn1 (centres unmarked) ?
Response line: 211 µM

Prompt line: What measured solubility at 2 h goes with Nc1ccccc1NC(=O)c1ccc(C(=O)NCCN2CCC3(CCCCC3)CC2)cc1 ?
Response line: 205 µM

Prompt line: What measured solubility at 2 h goes with CC1CCCC(C)N1CCNC(=O)c1ccc(C(=O)Nc2ccccc2N)nc1 (centres unmarked) ?
Response line: 207 µM

Prompt line: What measured solubility at 2 h goes with Nc1ccccc1NC(=O)c1ccc(C(=O)NCCN2CCCC3CCCCC32)cn1 (centres unmarked) ?
Response line: 191 µM
